Provenance of the data: ChEMBL document CHEMBL3132771

Organism: Homo sapiens
Test: Binding affinity to EP300A (unknown origin) at 4 uM by thermal shift assay
Activity calls are given as the source filed them. The calls are words filed in the database; no cut-off is given here.
One label from this list, please: active, inactive

Check the results log: what was the call for FC(F)(F)c1nnc2ccc(-c3ccccc3)nn12 ?
inactive

Hello, I am checking results. What call was entered for Cc1ccc(-c2cc(N)c3nnc(C)n3n2)cc1NS(=O)(=O)c1ccc(Cl)c(Cl)c1 ?
active

Entry COc1ccc(-c2ccc3nnc(C(F)(F)F)n3n2)cc1 : call = ?
inactive

Tell me the recorded outcome of this test for CCOC(=O)N(c1cc(-c2cc(N)c3nnc(C)n3n2)ccc1C)S(=O)(=O)c1ccc(Cl)cc1 .
inactive
